Catalogue of pest or weed control at 5 µg/cm2, 5 µg/cm2 readings, one per entry.
# Tested on: Rhipicephalus sanguineus
# runDescription: Rhipicephalus sanguineus in-vitro contact test, adult brown dog ticks (RHIPSA Contact)
# Format: in vivo
# experimentalSetup: 5 μg/cm^2 (=500 g/ha), after 48 hours, read-out: activity (efficacy, ticks dead or moribund)
Number only, in %; omit the unit.

C[C@H](Nc1nc2cc(OC(F)(F)F)c(Cl)cc2o1)c1ncnn1-c1ncccn1 | 100

Q: What is its pest or weed control at 5 µg/cm2, 5 µg/cm2 for Rhipicephalus sanguineus? Entry: `C[C@H](Nc1nc2cc(C(F)(F)F)cc(Cl)c2o1)c1ncnn1-c1cnccn1`
Result: 100

Q: What is its pest or weed control at 5 µg/cm2, 5 µg/cm2 for Rhipicephalus sanguineus? Entry: `C[C@H](Nc1nc2cc(OC(F)(F)F)c(Cl)cc2o1)c1ncnn1-c1ncc(F)cn1`
Result: 100

Q: What is its pest or weed control at 5 µg/cm2, 5 µg/cm2 for Rhipicephalus sanguineus? Entry: `C[C@H](Nc1nc2cc(S(F)(F)(F)(F)F)cc(Cl)c2o1)c1ncnn1-c1ncc(Br)cn1`
Result: 100

Q: What is its pest or weed control at 5 µg/cm2, 5 µg/cm2 for Rhipicephalus sanguineus? Entry: CC(Nc1nc2cc(C#N)cc(Cl)c2o1)c1ncnn1-c1ncccn1 (centres unmarked)
Result: 80

meta.source: patent US12384769B2
